Test system: CEM cells HIV-1 protection, formazan growth assay
Assay: NCI AIDS Antiviral Assay
Conditions: measured here: growth of uninfected CEM cells
In plain terms, low IC50, meaning strictly below 6 µM, gives Y, and everything else gives N.

Solved cases (2 shown):
Exercise: Item O=S(=O)(O)OCCOc1ccc(S(=O)(=O)c2ccc(OCCOS(=O)(=O)O)cc2)cc1 : IC50 beneath 6 µM, strictly?
Solution: N

Exercise: Item CC(C)=C[C@@H]1C[C@H](n2cc(C)c(=O)[nH]c2=O)ON1CCO : IC50 beneath 6 µM, strictly?
Solution: N

More entries:
Exercise: Item CCN(CC)CC(=O)NC1c2ccc(Cl)cc2Oc2c(C)cccc21 (stereo not given) : IC50 beneath 6 µM, strictly?
Solution: N

Exercise: Item O=C1C=CC(=O)N1Nc1ccc([N+](=O)[O-])cc1[N+](=O)[O-] : IC50 beneath 6 µM, strictly?
Solution: N

Exercise: Item COc1ccc(N=C2C(=Nc3ccc(OC)cc3)N(c3ccc(N(C)C)cc3)C(=S)N2c2ccc(OC)cc2)cc1 : IC50 beneath 6 µM, strictly?
Solution: Y

Exercise: Item COc1cc([N+](=O)[O-])c(OC)c2c(Nc3ccc(S(=O)(=O)O)c4cc(S(=O)(=O)O)cc(S(=O)(=O)O)c34)cc(C)nc12 : IC50 beneath 6 µM, strictly?
Solution: N

Exercise: Item C/C=C/c1cc2c(c(=O)o1)C(=O)[C@@H](O)[C@H](C)O2 : IC50 beneath 6 µM, strictly?
Solution: Y

Exercise: Item COc1cc(C2c3cc4c(cc3OC3(N5CCCC5)CCCC23)OCO4)cc(OC)c1OC (stereo not given) : IC50 beneath 6 µM, strictly?
Solution: Y

Exercise: Item Clc1ccccc1-c1nc2ccc(C34CC5CC(CC(C5)C3)C4)cc2[nH]1 : IC50 beneath 6 µM, strictly?
Solution: N

Exercise: Item COc1cccc2c1C1=CC(=O)CCC1C(C)(C)O2 (stereo not given) : IC50 beneath 6 µM, strictly?
Solution: N

Exercise: Item CC(C)c1ccc2c(c1)C=C1OC(=O)[C@]3(C)CCC[C@@]2(C)C13 (stereo not given in full) : IC50 beneath 6 µM, strictly?
Solution: N

Exercise: Item Cc1c2c(cc3c(=O)ccn(CCN(C)C)c13)c(=O)ccn2CCN(C)C : IC50 beneath 6 µM, strictly?
Solution: Y

Exercise: Item CC1CN=C(Nc2ccc(S(N)(=O)=O)cc2)S1 (stereo not given) : IC50 beneath 6 µM, strictly?
Solution: N

Exercise: Item CCC(C#N)(c1ccccc1)N(CCc1ccccc1)C(=O)c1ccccc1 (stereo not given) : IC50 beneath 6 µM, strictly?
Solution: N

Exercise: Item CCCCN(CCCC)/N=C/c1c2c(O)c3c(O)c(C)c4c(c3c1O)C(=O)C(C)(O/C=C/C(OC)C(C)C(OC(C)=O)C(C)C(O)C(C)C(O)C(C)/C=C/C=C(C)C(=O)N2)O4 (stereo not given) : IC50 beneath 6 µM, strictly?
Solution: N

* * *

Listing of entries alongside the reported pEC50.
Tested on: CEM cells HIV-1 protection, formazan growth assay
Assay: NCI AIDS Antiviral Assay
pEC50: −log10 of the molar value.

Exercise: Supply recorded pEC50 for O=c1[nH]c2nccn2c(Cl)c1Br here.
Solution: < 3.70

Exercise: Supply recorded pEC50 for CSCCCSC1CCCCCCCCCCC1=O (stereo not given) here.
Solution: < 3.70

Exercise: Supply recorded pEC50 for N#CC(C#N)=Cc1cc(Cl)ccc1O here.
Solution: < 3.70

More entries:
Exercise: Supply recorded pEC50 for CCOc1ccc(N=NC2C(=O)N(C(=O)CC(=O)Nc3ccc(C)cc3)N=C2C)cc1 (stereo not given) here.
Solution: < 3.70

Exercise: Supply recorded pEC50 for C=C1CN(S(=O)(=O)c2ccc(C)cc2)CCCN(Cc2ccc[nH]2)CCCN(S(=O)(=O)c2ccc(C)cc2)C1 here.
Solution: < 3.70

Exercise: Supply recorded pEC50 for CC(=O)NC1=N/C(=C\c2ccc(Cl)cc2)C(=O)N1/C=C1\C(=O)Oc2ccccc2C1=O here.
Solution: < 3.70

Exercise: Supply recorded pEC50 for COc1cc(/C=C/C(=N\NS(=O)(=O)c2ccc(C)cc2)c2sc(NNC(C)=O)nc2C)ccc1O here.
Solution: < 4.33

Exercise: Supply recorded pEC50 for C=CCNC(=O)N(CCCC(NC(C)=O)C(=O)NCc1ccccc1)Cc1ccccc1 (stereo not given) here.
Solution: < 3.24

Exercise: Supply recorded pEC50 for CC1=C(C)C2(C#N)CC(=O)N=C2O1 (stereo not given) here.
Solution: < 3.70

Exercise: Supply recorded pEC50 for CCOC(=O)c1c(SCCN2CCOCC2)n(-c2ccccc2)c(=S)n(-c2ccccc2)c1=O here.
Solution: < 4.56

* * *

Tested on: CEM cells HIV-1 protection, formazan growth assay
Test: NCI AIDS Antiviral Assay
Conditions: measured here: growth of uninfected CEM cells
Listing of entries alongside the reported IC50.
Write the value in µM as a bare number.

Exercise: Supply recorded IC50 for Cc1[nH]nc2c1NC(=O)OC2C (stereo not given) here.
Solution: 1200

Exercise: Supply recorded IC50 for COc1cc(C(c2c(O)c3ccccc3oc2=O)c2c(O)c3ccccc3oc2=O)ccc1O here.
Solution: 56.2

More entries:
Exercise: Supply recorded IC50 for CC(C)(C)[Si](C)(C)OC[C@H](CO)NC(=O)OCc1ccccc1 here.
Solution: 38.9

* * *

Listing of entries alongside the reported pIC50.
Tested on: CEM cells HIV-1 protection, formazan growth assay
Assay: NCI AIDS Antiviral Assay
Conditions: measured here: growth of uninfected CEM cells
Experimental: The ability of compounds to protect human CEM cells from HIV-1 infection is measured as a screen for new compounds capable of inhibiting the HIV virus. Five concentrations of drug were tested on uninfected and infected cells and cell growth was measured using a soluble formazan assay. […] Compounds that provided at least 50% protection were retested. Compounds that provided at least 50% protection on retest were listed as moderately active. […]
API: returns pIC50 as number; meaning -log10 of concentration in mol/L.

Exercise: Supply recorded pIC50 for CCOC(=O)C(NC(=O)Nc1ccccc1)(Nc1cccc(Cl)c1)C(F)(F)F (centres undefined) here.
Solution: 3.71

Exercise: Supply recorded pIC50 for COC12[C@@H]3N[C@@H]3CN1C1=C(C(=O)C(NCCSSCCNC3=C(C)C(=O)C4=C(C3=O)C(COC(N)=O)[C@]3(OC)C5N[C@@H]5CN43)=C(C)C1=O)[C@@H]2COC(N)=O (some centres undefined) here.
Solution: 7.20

Exercise: Supply recorded pIC50 for CCC[N+](C)(C)CCCNC(=O)c1c(O)c2ccccc2[nH]c1=O here.
Solution: 3.74

Exercise: Supply recorded pIC50 for NC(=O)C1=CN(Cc2ccc(F)cc2)c2ccccc2C1S(=O)(=O)O (centres undefined) here.
Solution: 3.61

Now look at this entry.
Exercise: Supply recorded pIC50 for O=C(Nc1ccccc1)c1ccccc1[Se][Se]c1ccccc1C(=O)Nc1ccccc1 here.
Solution: 5.02

* * *

Listing of entries alongside the reported IC50.
System: CEM cells HIV-1 protection, formazan growth assay
Assay: NCI AIDS Antiviral Assay
Details: measured here: growth of uninfected CEM cells

Worked examples follow.
Exercise: Supply recorded IC50 for Cc1c2ccccc2nc(CS(=O)(=O)CCO)[n+]1[O-] here.
Solution: > 200 µM

Exercise: Supply recorded IC50 for CCCCC1C=Cn2c(=O)oc3c(OC(C)C)c(OC(C)C)c(O)c1c32 (configuration not stated) here.
Solution: 13.2 µM

Exercise: Supply recorded IC50 for Cc1cc(C)c2nccc(NCCCN(C)C)c2c1[N+](=O)[O-] here.
Solution: 42.7 µM

Exercise: Supply recorded IC50 for Oc1ccc(Cc2nc3ccccc3[nH]2)cc1 here.
Solution: > 200 µM

Exercise: Supply recorded IC50 for Cc1ccc2c(c1S)C(=O)c1ccccc1C2=O here.
Solution: 29.5 µM

More entries:
Exercise: Supply recorded IC50 for O=C(CN1CCCCC1)c1ccc2[nH]c(=O)oc2c1 here.
Solution: 129 µM

Exercise: Supply recorded IC50 for Cc1nc2cnc(Nc3ccccc3)nc2n(-c2ccccc2)c1=O here.
Solution: > 200 µM

Exercise: Supply recorded IC50 for Cc1ccc(NC(=O)/C(=N\NC(N)=O)c2c(O)c3ccccc3[nH]c2=O)cc1 here.
Solution: > 95.5 µM

Exercise: Supply recorded IC50 for COC(=O)C1=C2Nc3ccccc3C23CCN2CCC(=O)C[C@H](C1)[C@@H]23 (some centres not stated) here.
Solution: > 107 µM

Exercise: Supply recorded IC50 for O=S(Nc1ccccc1)c1ccc(Cl)cc1 (configuration not stated) here.
Solution: 81.3 µM

Exercise: Supply recorded IC50 for S=c1sc2ccccc2n1CNc1ccccc1Cl here.
Solution: 28.2 µM

Exercise: Supply recorded IC50 for Cc1ccc(NC(=O)CC(=O)n2nc(C)c(N=Nc3ccc(S(=O)(=O)CCOS(=O)(=O)O)cc3)c2C)cc1 here.
Solution: > 200 µM
